# STUDY_TARGET: UniProtKB P42685
# Sequence (P42685 whole entry, looked up): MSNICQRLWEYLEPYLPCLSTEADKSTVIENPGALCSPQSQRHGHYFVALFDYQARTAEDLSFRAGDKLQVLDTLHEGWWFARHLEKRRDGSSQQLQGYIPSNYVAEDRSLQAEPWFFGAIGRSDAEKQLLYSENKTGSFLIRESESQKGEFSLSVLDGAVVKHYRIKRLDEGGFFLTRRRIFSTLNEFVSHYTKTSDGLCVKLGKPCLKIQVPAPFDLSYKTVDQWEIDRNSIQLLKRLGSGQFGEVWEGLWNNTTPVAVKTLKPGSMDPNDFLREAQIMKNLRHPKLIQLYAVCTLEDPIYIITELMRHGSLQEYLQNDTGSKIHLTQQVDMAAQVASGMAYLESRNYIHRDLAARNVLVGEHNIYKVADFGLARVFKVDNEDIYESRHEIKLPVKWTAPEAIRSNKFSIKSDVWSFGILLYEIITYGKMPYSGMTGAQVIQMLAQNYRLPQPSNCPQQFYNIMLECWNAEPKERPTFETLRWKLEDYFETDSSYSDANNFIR
# ASSAY_TEXT: KINOMEscan competition binding
# ASSAY_CONDITIONS: compound 10.0 µM
The molecules listed here are annotated with their kinase still bound, per cent of control.
Respond numerically; units are % and should not be typed.

COc1cc(N2CCC(N3CCN(C)CC3)CC2)ccc1Nc1ncc(Cl)c(Nc2ccccc2S(=O)(=O)C(C)C)n1 :: 0.2

Return the recorded kinase still bound, per cent of control value; entry: CCN1CCN(Cc2ccc(NC(=O)c3ccc(C)c(/C=C/c4cnc(Nc5cc(N6CCNCC6)nc(C)n5)cn4)c3)cc2C(F)(F)F)CC1 7

Provide only the value of recorded kinase still bound, per cent of control for CCN1CCN(Cc2ccc(NC(=O)c3ccc(C)c(Oc4ccnc5[nH]ccc45)c3)cc2C(F)(F)F)CC1 0.7

Provide measured kinase still bound, per cent of control value, entry: CCOc1cc(N2CCC(N3CCCCC3)CC2)ccc1Nc1nc(Nc2ccccc2S(=O)(=O)C(C)C)c2cn[nH]c2n1 18

----------
Examples of compounds with documented kinase still bound, per cent of control follow.
# STUDY_TARGET: ULK3 (human) (UniProt Q6PHR2)
# ASSAY_TEXT: KINOMEscan competition binding
# ASSAY_CONDITIONS: compound 10.0 µM
Return type: number; implicit unit %.

The following compounds have reported results that may help.
CCN1CCN(Cc2ccc(NC(=O)c3ccc(C)c(Oc4ccnc5[nH]ccc45)c3)cc2C(F)(F)F)CC1 :: 0.1
CCN1CCN(Cc2ccc(NC(=O)c3ccc(C)c(/C=C/c4cnc(Nc5cc(N6CCNCC6)nc(C)n5)cn4)c3)cc2C(F)(F)F)CC1 :: 1.6
CCOc1cc(N2CCC(N3CCCCC3)CC2)ccc1Nc1nc(Nc2ccccc2S(=O)(=O)C(C)C)c2cn[nH]c2n1 :: 100

// switching to the query compound
Retrieve kinase still bound, per cent of control measured for COc1cc(N2CCC(N3CCN(C)CC3)CC2)ccc1Nc1ncc(Cl)c(Nc2ccccc2S(=O)(=O)C(C)C)n1 and print it. 0

----------
# STUDY_TARGET: FGFR2 (human) (UniProt P21802)
# Sequence (P21802 whole entry, looked up): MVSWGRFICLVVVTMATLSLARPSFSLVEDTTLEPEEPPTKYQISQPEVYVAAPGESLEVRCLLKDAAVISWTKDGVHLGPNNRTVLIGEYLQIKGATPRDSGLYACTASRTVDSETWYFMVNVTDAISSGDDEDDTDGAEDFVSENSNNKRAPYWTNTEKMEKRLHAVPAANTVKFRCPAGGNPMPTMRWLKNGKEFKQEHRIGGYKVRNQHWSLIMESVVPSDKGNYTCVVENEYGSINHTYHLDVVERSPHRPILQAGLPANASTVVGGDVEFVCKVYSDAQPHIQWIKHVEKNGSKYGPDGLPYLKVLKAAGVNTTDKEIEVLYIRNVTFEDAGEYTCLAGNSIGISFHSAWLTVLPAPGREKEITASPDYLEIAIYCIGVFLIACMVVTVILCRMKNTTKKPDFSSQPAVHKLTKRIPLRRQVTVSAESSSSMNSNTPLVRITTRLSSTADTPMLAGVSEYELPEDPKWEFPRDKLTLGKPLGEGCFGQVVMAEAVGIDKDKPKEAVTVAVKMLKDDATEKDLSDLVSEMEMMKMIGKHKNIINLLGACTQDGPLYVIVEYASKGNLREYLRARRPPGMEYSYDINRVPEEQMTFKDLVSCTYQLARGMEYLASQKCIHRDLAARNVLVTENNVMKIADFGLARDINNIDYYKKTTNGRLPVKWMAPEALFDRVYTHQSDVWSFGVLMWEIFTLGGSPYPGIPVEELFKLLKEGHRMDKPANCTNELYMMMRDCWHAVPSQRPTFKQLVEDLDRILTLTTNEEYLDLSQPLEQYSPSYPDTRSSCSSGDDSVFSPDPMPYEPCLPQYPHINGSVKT
# ASSAY_TEXT: KINOMEscan competition binding
# ASSAY_CONDITIONS: compound 10.0 µM
QUANTITY_MEASURED: kinase still bound, per cent of control (%)
Write down the numeric answer in % and omit the unit.

CCN1CCN(Cc2ccc(NC(=O)c3ccc(C)c(/C=C/c4cnc(Nc5cc(N6CCNCC6)nc(C)n5)cn4)c3)cc2C(F)(F)F)CC1 :: 10
COc1cc(N2CCC(N3CCN(C)CC3)CC2)ccc1Nc1ncc(Cl)c(Nc2ccccc2S(=O)(=O)C(C)C)n1 :: 0.95
CCN1CCN(Cc2ccc(NC(=O)c3ccc(C)c(Oc4ccnc5[nH]ccc45)c3)cc2C(F)(F)F)CC1 :: 1.4

Turning to the following molecule.
Give measured kinase still bound, per cent of control for CCOc1cc(N2CCC(N3CCCCC3)CC2)ccc1Nc1nc(Nc2ccccc2S(=O)(=O)C(C)C)c2cn[nH]c2n1 (FGFR2 (human) (UniProt P21802)). 100

----------
# STUDY_TARGET: KDR (human) (UniProt P35968)
# Sequence (P35968 whole entry, looked up): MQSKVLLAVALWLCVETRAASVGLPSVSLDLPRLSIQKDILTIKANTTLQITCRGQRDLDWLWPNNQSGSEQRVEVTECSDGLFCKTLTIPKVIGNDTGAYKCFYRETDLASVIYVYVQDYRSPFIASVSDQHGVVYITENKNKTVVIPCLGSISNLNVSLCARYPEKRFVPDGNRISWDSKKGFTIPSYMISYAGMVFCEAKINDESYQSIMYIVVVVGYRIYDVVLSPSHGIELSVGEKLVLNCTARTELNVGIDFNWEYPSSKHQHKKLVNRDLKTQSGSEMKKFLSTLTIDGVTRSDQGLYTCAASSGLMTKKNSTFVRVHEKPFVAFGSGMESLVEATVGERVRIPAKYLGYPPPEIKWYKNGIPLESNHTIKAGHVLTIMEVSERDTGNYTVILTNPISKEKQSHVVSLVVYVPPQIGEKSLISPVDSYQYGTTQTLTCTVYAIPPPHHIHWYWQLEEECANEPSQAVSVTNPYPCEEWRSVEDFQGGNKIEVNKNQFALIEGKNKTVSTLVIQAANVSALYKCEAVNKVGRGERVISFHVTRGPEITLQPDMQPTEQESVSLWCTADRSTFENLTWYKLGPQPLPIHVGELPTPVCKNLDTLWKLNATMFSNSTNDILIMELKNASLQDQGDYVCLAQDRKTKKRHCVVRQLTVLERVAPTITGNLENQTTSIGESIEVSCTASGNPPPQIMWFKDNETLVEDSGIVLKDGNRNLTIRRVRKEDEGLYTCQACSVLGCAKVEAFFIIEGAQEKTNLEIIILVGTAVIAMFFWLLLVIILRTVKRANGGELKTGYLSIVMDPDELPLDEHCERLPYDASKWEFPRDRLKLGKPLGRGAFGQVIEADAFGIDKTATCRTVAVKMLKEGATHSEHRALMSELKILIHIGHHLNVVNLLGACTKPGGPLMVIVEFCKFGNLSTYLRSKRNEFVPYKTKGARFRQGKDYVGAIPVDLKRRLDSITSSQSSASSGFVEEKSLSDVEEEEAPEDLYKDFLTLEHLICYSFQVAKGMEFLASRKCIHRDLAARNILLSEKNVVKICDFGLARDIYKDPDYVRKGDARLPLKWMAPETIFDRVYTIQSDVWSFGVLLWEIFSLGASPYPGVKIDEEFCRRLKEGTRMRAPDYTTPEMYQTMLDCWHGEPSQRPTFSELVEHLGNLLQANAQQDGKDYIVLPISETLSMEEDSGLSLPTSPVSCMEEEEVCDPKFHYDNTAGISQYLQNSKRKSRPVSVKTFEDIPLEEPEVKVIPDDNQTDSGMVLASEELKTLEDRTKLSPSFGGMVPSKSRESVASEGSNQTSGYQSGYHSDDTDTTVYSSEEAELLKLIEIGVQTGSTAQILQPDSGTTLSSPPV
# ASSAY_TEXT: KINOMEscan competition binding
# ASSAY_CONDITIONS: compound 10.0 µM
QUANTITY_MEASURED: kinase still bound, per cent of control (%)
Write it as a number; the unit % goes unstated.

Worked cases, kinase still bound, per cent of control given:
CCN1CCN(Cc2ccc(NC(=O)c3ccc(C)c(/C=C/c4cnc(Nc5cc(N6CCNCC6)nc(C)n5)cn4)c3)cc2C(F)(F)F)CC1 :: 37
CCN1CCN(Cc2ccc(NC(=O)c3ccc(C)c(Oc4ccnc5[nH]ccc45)c3)cc2C(F)(F)F)CC1 :: 1.5
COc1cc(N2CCC(N3CCN(C)CC3)CC2)ccc1Nc1ncc(Cl)c(Nc2ccccc2S(=O)(=O)C(C)C)n1 :: 2.2

Fill in reported kinase still bound, per cent of control for this entry: CCOc1cc(N2CCC(N3CCCCC3)CC2)ccc1Nc1nc(Nc2ccccc2S(=O)(=O)C(C)C)c2cn[nH]c2n1 100

----------
# Tested on: EGFR (human), P00533 [A750P; 747-749 del]
# ASSAY_TEXT: KINOMEscan competition binding
# ASSAY_CONDITIONS: compound 10.0 µM
kinase still bound, per cent of control values by entry
Please give a number only; it is taken to be in %.

A selection of reference data follows.
CCN1CCN(Cc2ccc(NC(=O)c3ccc(C)c(Oc4ccnc5[nH]ccc45)c3)cc2C(F)(F)F)CC1 :: 1.5
COc1cc(N2CCC(N3CCN(C)CC3)CC2)ccc1Nc1ncc(Cl)c(Nc2ccccc2S(=O)(=O)C(C)C)n1 :: 0
CCN1CCN(Cc2ccc(NC(=O)c3ccc(C)c(/C=C/c4cnc(Nc5cc(N6CCNCC6)nc(C)n5)cn4)c3)cc2C(F)(F)F)CC1 :: 2.9

Answer with the recorded kinase still bound, per cent of control for the compound listed here: CCOc1cc(N2CCC(N3CCCCC3)CC2)ccc1Nc1nc(Nc2ccccc2S(=O)(=O)C(C)C)c2cn[nH]c2n1 10

----------
Documented kinase still bound, per cent of control across a set of compounds
# STUDY_TARGET: MYO3B (human)
# ASSAY_TEXT: KINOMEscan competition binding
# ASSAY_CONDITIONS: compound 10.0 µM
Quote the value and follow it with the unit of measurement.

COc1cc(N2CCC(N3CCN(C)CC3)CC2)ccc1Nc1ncc(Cl)c(Nc2ccccc2S(=O)(=O)C(C)C)n1 :: 0.6%
CCN1CCN(Cc2ccc(NC(=O)c3ccc(C)c(Oc4ccnc5[nH]ccc45)c3)cc2C(F)(F)F)CC1 :: 4.8%
CCOc1cc(N2CCC(N3CCCCC3)CC2)ccc1Nc1nc(Nc2ccccc2S(=O)(=O)C(C)C)c2cn[nH]c2n1 :: 18%

Give reported kinase still bound, per cent of control value for CCN1CCN(Cc2ccc(NC(=O)c3ccc(C)c(/C=C/c4cnc(Nc5cc(N6CCNCC6)nc(C)n5)cn4)c3)cc2C(F)(F)F)CC1 67%

----------
# kinase still bound, per cent of control annotations
# STUDY_TARGET: PTK2 (human) (UniProt Q05397)
# Sequence (Q05397 whole entry, looked up): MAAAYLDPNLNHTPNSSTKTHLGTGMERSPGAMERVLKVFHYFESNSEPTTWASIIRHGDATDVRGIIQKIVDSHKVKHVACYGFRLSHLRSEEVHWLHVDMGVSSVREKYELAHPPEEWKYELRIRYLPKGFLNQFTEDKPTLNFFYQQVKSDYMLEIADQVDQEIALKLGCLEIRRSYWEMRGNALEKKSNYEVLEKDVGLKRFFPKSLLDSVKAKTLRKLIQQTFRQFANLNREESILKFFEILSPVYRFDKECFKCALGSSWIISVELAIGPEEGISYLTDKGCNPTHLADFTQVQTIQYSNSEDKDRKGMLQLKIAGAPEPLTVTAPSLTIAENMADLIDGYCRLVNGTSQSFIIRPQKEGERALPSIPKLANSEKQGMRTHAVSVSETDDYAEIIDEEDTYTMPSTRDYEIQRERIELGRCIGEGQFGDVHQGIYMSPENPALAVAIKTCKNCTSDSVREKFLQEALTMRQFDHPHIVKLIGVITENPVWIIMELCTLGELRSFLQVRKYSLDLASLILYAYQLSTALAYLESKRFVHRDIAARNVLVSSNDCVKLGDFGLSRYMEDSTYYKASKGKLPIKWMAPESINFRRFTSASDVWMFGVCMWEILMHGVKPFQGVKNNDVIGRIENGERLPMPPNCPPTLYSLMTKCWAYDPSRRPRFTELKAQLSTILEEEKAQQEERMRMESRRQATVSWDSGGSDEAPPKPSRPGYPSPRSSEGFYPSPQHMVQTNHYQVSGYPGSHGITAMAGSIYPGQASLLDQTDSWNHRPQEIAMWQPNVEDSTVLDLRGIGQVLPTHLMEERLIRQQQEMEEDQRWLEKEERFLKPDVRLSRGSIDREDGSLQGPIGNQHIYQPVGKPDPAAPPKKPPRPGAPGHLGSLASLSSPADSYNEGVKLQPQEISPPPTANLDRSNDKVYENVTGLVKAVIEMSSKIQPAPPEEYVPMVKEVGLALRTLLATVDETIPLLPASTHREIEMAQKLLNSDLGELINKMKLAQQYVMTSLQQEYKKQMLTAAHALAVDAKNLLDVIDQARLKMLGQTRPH
# ASSAY_TEXT: KINOMEscan competition binding
# ASSAY_CONDITIONS: compound 10.0 µM
Kindly provide the numeric value in % only, without the unit symbol.

Some entries whose results are on file:
COc1cc(N2CCC(N3CCN(C)CC3)CC2)ccc1Nc1ncc(Cl)c(Nc2ccccc2S(=O)(=O)C(C)C)n1 :: 0
CCOc1cc(N2CCC(N3CCCCC3)CC2)ccc1Nc1nc(Nc2ccccc2S(=O)(=O)C(C)C)c2cn[nH]c2n1 :: 0.2
CCN1CCN(Cc2ccc(NC(=O)c3ccc(C)c(Oc4ccnc5[nH]ccc45)c3)cc2C(F)(F)F)CC1 :: 23

# ---- query compound ----
Find the measured kinase still bound, per cent of control of CCN1CCN(Cc2ccc(NC(=O)c3ccc(C)c(/C=C/c4cnc(Nc5cc(N6CCNCC6)nc(C)n5)cn4)c3)cc2C(F)(F)F)CC1 and report it. 100

----------
# STUDY_TARGET: SLK (human) (UniProt Q9H2G2)
# Sequence (Q9H2G2 whole entry, looked up): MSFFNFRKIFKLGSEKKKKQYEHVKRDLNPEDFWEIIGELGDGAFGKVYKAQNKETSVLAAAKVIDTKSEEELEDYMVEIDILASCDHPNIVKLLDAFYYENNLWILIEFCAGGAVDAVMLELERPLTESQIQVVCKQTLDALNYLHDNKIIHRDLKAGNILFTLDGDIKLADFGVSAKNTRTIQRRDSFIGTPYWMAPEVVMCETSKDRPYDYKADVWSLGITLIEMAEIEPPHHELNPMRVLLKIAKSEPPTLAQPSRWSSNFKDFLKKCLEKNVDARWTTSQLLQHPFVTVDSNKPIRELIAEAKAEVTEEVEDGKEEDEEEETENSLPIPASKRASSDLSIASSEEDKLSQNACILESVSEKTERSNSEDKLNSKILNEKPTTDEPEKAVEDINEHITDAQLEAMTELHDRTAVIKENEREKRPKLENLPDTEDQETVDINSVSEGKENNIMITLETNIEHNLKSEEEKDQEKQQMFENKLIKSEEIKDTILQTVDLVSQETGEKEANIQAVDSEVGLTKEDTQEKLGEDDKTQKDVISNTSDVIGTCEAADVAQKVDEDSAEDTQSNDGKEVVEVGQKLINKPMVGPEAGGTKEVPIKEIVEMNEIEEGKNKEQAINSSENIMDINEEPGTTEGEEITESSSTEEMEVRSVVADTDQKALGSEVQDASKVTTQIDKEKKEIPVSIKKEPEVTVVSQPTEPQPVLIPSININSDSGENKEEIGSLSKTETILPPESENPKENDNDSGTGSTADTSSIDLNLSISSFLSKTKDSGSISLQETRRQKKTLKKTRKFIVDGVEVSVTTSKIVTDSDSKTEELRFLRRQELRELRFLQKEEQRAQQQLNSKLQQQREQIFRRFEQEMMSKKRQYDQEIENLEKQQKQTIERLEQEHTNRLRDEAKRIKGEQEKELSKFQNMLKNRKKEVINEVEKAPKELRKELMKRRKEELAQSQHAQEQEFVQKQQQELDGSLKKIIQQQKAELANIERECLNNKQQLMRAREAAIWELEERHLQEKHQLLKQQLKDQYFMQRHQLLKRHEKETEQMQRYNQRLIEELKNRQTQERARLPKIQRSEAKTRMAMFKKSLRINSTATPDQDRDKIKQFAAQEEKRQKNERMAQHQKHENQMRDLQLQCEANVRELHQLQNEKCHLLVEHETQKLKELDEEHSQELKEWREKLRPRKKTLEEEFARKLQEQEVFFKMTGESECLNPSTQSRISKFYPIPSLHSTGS
# ASSAY_TEXT: KINOMEscan competition binding
# ASSAY_CONDITIONS: compound 10.0 µM
QUANTITY_MEASURED: kinase still bound, per cent of control (%)
Number in %, nothing else.

A selection of reference data follows.
CCN1CCN(Cc2ccc(NC(=O)c3ccc(C)c(/C=C/c4cnc(Nc5cc(N6CCNCC6)nc(C)n5)cn4)c3)cc2C(F)(F)F)CC1 :: 2.4
CCN1CCN(Cc2ccc(NC(=O)c3ccc(C)c(Oc4ccnc5[nH]ccc45)c3)cc2C(F)(F)F)CC1 :: 2
CCOc1cc(N2CCC(N3CCCCC3)CC2)ccc1Nc1nc(Nc2ccccc2S(=O)(=O)C(C)C)c2cn[nH]c2n1 :: 14

Pending molecule:
Please report kinase still bound, per cent of control with SLK (human) (UniProt Q9H2G2) for item COc1cc(N2CCC(N3CCN(C)CC3)CC2)ccc1Nc1ncc(Cl)c(Nc2ccccc2S(=O)(=O)C(C)C)n1 . 0.1

----------
# STUDY_TARGET: MAPK12 (human)
# ASSAY_TEXT: KINOMEscan competition binding
# ASSAY_CONDITIONS: compound 10.0 µM
QUANTITY_MEASURED: kinase still bound, per cent of control (%)
Kindly provide the numeric value in % only, without the unit symbol.

Sample records with kinase still bound, per cent of control:
CCOc1cc(N2CCC(N3CCCCC3)CC2)ccc1Nc1nc(Nc2ccccc2S(=O)(=O)C(C)C)c2cn[nH]c2n1 :: 100
COc1cc(N2CCC(N3CCN(C)CC3)CC2)ccc1Nc1ncc(Cl)c(Nc2ccccc2S(=O)(=O)C(C)C)n1 :: 40
CCN1CCN(Cc2ccc(NC(=O)c3ccc(C)c(Oc4ccnc5[nH]ccc45)c3)cc2C(F)(F)F)CC1 :: 0

--- query ---
For CCN1CCN(Cc2ccc(NC(=O)c3ccc(C)c(/C=C/c4cnc(Nc5cc(N6CCNCC6)nc(C)n5)cn4)c3)cc2C(F)(F)F)CC1 , write its kinase still bound, per cent of control. 39
